assay: Clearance in CD rat at 1 mg/kg, iv; assay type: ADME, organism-based; design: dose 1 mg/kg, route intravenous; conditions: in vivo
outcome.measure: clearance (mL/min/kg)
State just the number; it will be interpreted in mL/min/kg.

Fill in the blank: the reported clearance of COCCNC(=O)c1c(O)c2ncc(Cc3ccc(F)cc3)cc2n(C)c1=O is ____.
11.8

----------
test: Cytotoxicity against human MT4 cells after 5 days by MTS assay; type: cell-based; details: read-out: CCIC50
CC50 at 120 h values for the compounds below.

Consider the following illustrative entries.
[
  {
    "mol.smiles": "CNC(=O)c1c(O)c2ncc(Cc3ccc(F)cc3)cc2n(C)c1=O",
    "CC50 at 120 h": "20 µM"
  },
  {
    "mol.smiles": "CNC(=O)c1c(O)c2ncc(Cc3ccc(F)cc3)cc2[nH]c1=O",
    "CC50 at 120 h": "> 8 µM"
  },
  {
    "mol.smiles": "COCCNC(=O)c1c(O)c2ncc(Cc3ccc(F)cc3)cc2[nH]c1=O",
    "CC50 at 120 h": "> 8 µM"
  },
  {
    "mol.smiles": "CCOC(=O)c1c(O)c2ncc(Cc3ccccc3)cc2[nH]c1=O",
    "CC50 at 120 h": "103 µM"
  },
  {
    "mol.smiles": "CCNC(=O)c1c(O)c2ncc(Cc3ccc(F)cc3)cc2n(C)c1=O",
    "CC50 at 120 h": "> 50 µM"
  },
  {
    "mol.smiles": "COC(=O)c1c(O)c2ncc(Cc3ccccc3)cc2[nH]c1=O",
    "CC50 at 120 h": "> 125 µM"
  },
  {
    "mol.smiles": "O=C(NC1CC1)c1c(O)c2ncc(Cc3ccc(F)cc3)cc2[nH]c1=O",
    "CC50 at 120 h": "> 8 µM"
  },
  {
    "mol.smiles": "COCCNC(=O)c1c(O)c2ncc(Cc3ccccc3)cc2[nH]c1=O",
    "CC50 at 120 h": "> 10 µM"
  },
  {
    "mol.smiles": "CC(C)CNC(=O)c1c(O)c2ncc(Cc3ccc(F)cc3)cc2[nH]c1=O",
    "CC50 at 120 h": "7 µM"
  },
  {
    "mol.smiles": "CCOC(=O)c1c(O)c2ncc(Cc3ccc(F)cc3)cc2n(C)c1=O",
    "CC50 at 120 h": "6 µM"
  }
]

Recorded CC50 at 120 h for COC(=O)c1c(O)c2ncccc2[nH]c1=O , please?
> 125 µM

State the recorded CC50 at 120 h for this entry: COCCNC(=O)c1c(O)c2ncc(Cc3ccc(F)cc3)cc2n(C)c1=O
> 20 µM
